Entry source: patent US6770635B1

assay: stability of BD2K1 in water (deuterium oxide), 500 MHz NMR; format: physicochemical; details: BD2K1 in deuterium oxide, room temperature about 27° C., initially
# Initially % (share of ingredient in the solution by NMR) annotations
valueKind: Initially % (share of ingredient in the solution by NMR) (%)

{"compound": "OC[C@H]1O[C@@H](N[C@@H]2O[C@H](CO)[C@@H](O)[C@H](O)[C@H]2O)[C@H](O)[C@@H](O)[C@@H]1O [BD2K1, di-Beta-D-glucopyranosylamine]", "experimentalValue": 92}
{"compound": "c1cnccn1 [pyrazine]", "experimentalValue": 1}
{"compound": "OC[C@H]1O[C@H](O)[C@H](O)[C@@H](O)[C@@H]1O [α-glucose]", "experimentalValue": 0}
{"compound": "OC[C@H]1O[C@@H](O)[C@H](O)[C@@H](O)[C@@H]1O [β-glucose]", "experimentalValue": 0}
